Here, each record is paired with measured Kd data.
tgt: T1, PUF4 RNA-binding domain (Saccharomyces cerevisiae, UniProt P25339 537-888)
T1 sequence: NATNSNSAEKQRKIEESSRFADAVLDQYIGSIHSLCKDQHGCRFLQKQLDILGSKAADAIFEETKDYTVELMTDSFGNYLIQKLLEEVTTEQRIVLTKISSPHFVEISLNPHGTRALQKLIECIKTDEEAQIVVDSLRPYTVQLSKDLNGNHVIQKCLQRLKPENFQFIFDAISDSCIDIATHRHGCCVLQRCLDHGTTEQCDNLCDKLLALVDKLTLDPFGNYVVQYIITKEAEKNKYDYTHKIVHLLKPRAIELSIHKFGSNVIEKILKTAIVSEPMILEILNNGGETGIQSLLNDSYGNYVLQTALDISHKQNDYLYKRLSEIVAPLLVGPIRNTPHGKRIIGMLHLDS
assay: Mg; RNA-MaP; 20 mM Na-HEPES pH 7.4, 30 mM KOAc, 0.75 mM MgCl2, 0.1% Tween-20, 5% glycerol, 0.1 mg/mL BSA, 2 mM DTT; 25 C; 0.0125-409.6 nM protein
assaySetup: tags: N-His6-TEV cleaved; C-SNAP kept, Cy3B-labelled; label: tethered on chip by stalled RNA polymerase
Form entry: value (nM) — number only.

Before answering, review these 5 worked examples.
binder	Kd (nM)
Ic_S2_P4E.1_K4.1_C4.1_H4.1_A4.1_[T5G]_[A6C]_[T7G]_F4.1_[A9C]_T4.1 (ssRNA) RNA: UUUGAUUAAUAUGAUAUCGUUCUUUCUUGUAGCGUCUUCUUUCUCGAUAUCAUAUUAAUCUUU	782
Id_ii_S2_P3E.2_K3.1_C3.2_[C-2A]_[T-1A]_H3.1_A3.1_F3.1_T3.2_[T9G]_[A10C] (ssRNA) RNA: UUUGAUUAAUAUGAUAUCGUUCUUUCUAAUGUAUAUAGCUUCUUUCUCGAUAUCAUAUUAAUCUUU	10
UCUCUUGGUGUAUAUAUGUCUCUU (ssRNA) [Id_ii_S1_P3E.2_K3.1_C3.2_[C-2G]_[T-1G]_H3.1_A3.1_F3.1_T3.2_[A10G]]	16.4
UCUCUUUGUAUCGAUUCUCUU (ssRNA) [Ic_S1_P4E.1_K4.1_C4.1_H4.1_A4.1_[A6C]_[T7G]_F4.1_[T8A]_[A9T]_T4.1]	581
Ie_S2_P5E.1_K5.1_C5.1_H5.1_A5.1_F5.1_[+10TCT]_T5.1 (ssRNA) RNA: UUUGAUUAAUAUGAUAUCGUUCUUUCUUGUAUUAUUAUCUUUCUUUCUCGAUAUCAUAUUAAUCUUU	3.7

Kd for UCUCUUCGUAUAUUAUUAGUUCUCUU (ssRNA) [Id_ii_S1_P5E.3_K5.2_C5.2_[T-1G]_H5.2_A5.1_F5.1_T5.2_[T11G]_[A12T]] is 25.4

Kd for UCUCUUUGUACGGCUGUCUCUU (ssRNA) [Ic_S1_P5E.1_K5.1_C5.1_H5.1_A5.1_[T5C]_[T6G]_[A7G]_F5.1_[T8C]_[A10G]_T5.1] is 2200

Kd for ACAAACUGUAUAUUAUUCCACAAAC (ssRNA) [Ie_S3_P4E.1_K4.1_C4.1_H4.1_A4.1_F4.1_[+9TTCC]_T4.1] is 0.554

Kd for Ic_S2_P5E.1_K5.1_C5.1_H5.1_A5.1_[T5G]_F5.1_[T8C]_[T9C]_[A10T]_T5.1 (ssRNA) RNA: UUUGAUUAAUAUGAUAUCGUUCUUUCUUGUAGUACCUUUCUUUCUCGAUAUCAUAUUAAUCUUU is 413

Kd for Ie_S4_P5E.1_K5.1_C5.1_H5.1_A5.1_[+6TTC]_F5.1_T5.1 (ssRNA) RNA: UUUGACAACUGAUCGUUCUUUCUUGUAUUUUCAUUAUUCUUUCUCGAUCAGUUGUCUUU is 32

Kd for Ie_S2_P3E.2_K3.1_C3.2_H3.1_[+1C]_A3.1_F3.1_T3.2 (ssRNA) RNA: UUUGAUUAAUAUGAUAUCGUUCUUUCUCUUCGUAUAUAUAUUCUUUCUCGAUAUCAUAUUAAUCUUU is 34.5
